Below: a set of entries, each annotated with reported inhibition.
target: Potassium voltage-gated channel subfamily A member 5 (Homo sapiens); assay: Inhibition of human Kv1.5 channel expressed in Xenopus oocytes at 10 uM by EP voltage clamp technique; format: cell-based; settings: Oocyte
Sequence (P22460 whole entry): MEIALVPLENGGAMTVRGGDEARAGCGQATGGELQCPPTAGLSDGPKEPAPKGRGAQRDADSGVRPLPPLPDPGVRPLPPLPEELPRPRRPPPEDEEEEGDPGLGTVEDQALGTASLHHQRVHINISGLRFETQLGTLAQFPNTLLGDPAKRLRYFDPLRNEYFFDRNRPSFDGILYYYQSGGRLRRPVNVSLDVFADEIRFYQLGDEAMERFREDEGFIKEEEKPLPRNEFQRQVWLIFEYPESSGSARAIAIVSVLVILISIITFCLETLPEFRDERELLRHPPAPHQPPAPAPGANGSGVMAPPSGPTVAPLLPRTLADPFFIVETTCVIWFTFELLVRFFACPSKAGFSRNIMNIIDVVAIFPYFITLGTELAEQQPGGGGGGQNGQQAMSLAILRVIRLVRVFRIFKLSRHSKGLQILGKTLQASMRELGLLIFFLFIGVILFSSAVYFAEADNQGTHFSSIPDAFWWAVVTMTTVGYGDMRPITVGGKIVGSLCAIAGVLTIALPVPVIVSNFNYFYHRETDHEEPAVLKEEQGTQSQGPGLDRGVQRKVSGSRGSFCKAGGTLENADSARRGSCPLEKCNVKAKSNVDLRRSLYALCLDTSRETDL
Number in %, nothing else.

Example entries and their recorded answers appear below.
| Compound | Measured On | Parameter | Unit String | Reported Measurement |
| --- | --- | --- | --- | --- |
| CC1=C(C(=O)Nc2cccnc2)C(c2ccc(Cl)c(Cl)c2)n2nccc2N1 (centres undefined) | Potassium voltage-gated channel subfamily A member 5 (Homo sapiens) | inhibition | % | 9 |
| CC1=C(C(=O)Nc2ccccc2)C(c2ccc(Cl)c(Cl)c2)n2nccc2N1 (centres undefined) | Potassium voltage-gated channel subfamily A member 5 (Homo sapiens) | inhibition | % | 83 |
| CC1=C(C(=O)NCCc2ccccc2)C(c2ccc(Cl)c(Cl)c2)n2nccc2N1 (centres undefined) | Potassium voltage-gated channel subfamily A member 5 (Homo sapiens) | inhibition | % | 84 |

Checklist item: inhibition tested on Potassium voltage-gated channel subfamily A member 5 (Homo sapiens), entry CC1=C(C(=O)N2CCN(c3ccccc3)CC2)C(c2ccc(Cl)c(Cl)c2)n2nccc2N1 (centres undefined) , value?
82
